TEST DESCRIPTION: Tmax in Sprague-Dawley rat at 10 mg/kg, po
Format: ADME, organism-based
CONDITION DETAILS: in vivo

MOLECULE SMILES	Tmax, h
Cc1c(NC(=O)CCN2CCCC2)c[nH]c1/C=C1\C(=O)Nc2ccc(F)cc21	2.7

----------
TEST DESCRIPTION: Chemical stability of compound incubated for 90 days by HPLC analysis
Assay type: physicochemical
CONDITION DETAILS: time 90 day; read-out: Stabilty
Property: remaining at 2160 h; scope: individual molecules
MEASUREMENT KIND: remaining at 2160 h (%)

MOLECULE SMILES	MEASUREMENT KIND	OBSERVED MEASUREMENT
Cc1c(/C=C2\C(=O)Nc3ccc(F)cc32)[nH]c(Cl)c1NC(=O)[C@@H]1CCCN1	remaining at 2160 h	95.4
Cc1c(/C=C2\C(=O)Nc3ccc(F)cc32)[nH]c(Br)c1NC(=O)[C@@H]1CCCN1	remaining at 2160 h	96.6
Cc1[nH]c(/C=C2\C(=O)Nc3ccc(F)cc32)c(C)c1NC(=O)[C@@H]1CCCN1	remaining at 2160 h	80.8
Cc1c(NC(=O)[C@@H]2CCCN2)c[nH]c1/C=C1\C(=O)Nc2ccc(F)cc21	remaining at 2160 h	99.1

----------
TARGET SYSTEM: Receptor-type tyrosine-protein kinase FLT3 (Homo sapiens, UniProt P36888, ITD)
Sequence (P36888 whole entry, looked up, stated change not applied): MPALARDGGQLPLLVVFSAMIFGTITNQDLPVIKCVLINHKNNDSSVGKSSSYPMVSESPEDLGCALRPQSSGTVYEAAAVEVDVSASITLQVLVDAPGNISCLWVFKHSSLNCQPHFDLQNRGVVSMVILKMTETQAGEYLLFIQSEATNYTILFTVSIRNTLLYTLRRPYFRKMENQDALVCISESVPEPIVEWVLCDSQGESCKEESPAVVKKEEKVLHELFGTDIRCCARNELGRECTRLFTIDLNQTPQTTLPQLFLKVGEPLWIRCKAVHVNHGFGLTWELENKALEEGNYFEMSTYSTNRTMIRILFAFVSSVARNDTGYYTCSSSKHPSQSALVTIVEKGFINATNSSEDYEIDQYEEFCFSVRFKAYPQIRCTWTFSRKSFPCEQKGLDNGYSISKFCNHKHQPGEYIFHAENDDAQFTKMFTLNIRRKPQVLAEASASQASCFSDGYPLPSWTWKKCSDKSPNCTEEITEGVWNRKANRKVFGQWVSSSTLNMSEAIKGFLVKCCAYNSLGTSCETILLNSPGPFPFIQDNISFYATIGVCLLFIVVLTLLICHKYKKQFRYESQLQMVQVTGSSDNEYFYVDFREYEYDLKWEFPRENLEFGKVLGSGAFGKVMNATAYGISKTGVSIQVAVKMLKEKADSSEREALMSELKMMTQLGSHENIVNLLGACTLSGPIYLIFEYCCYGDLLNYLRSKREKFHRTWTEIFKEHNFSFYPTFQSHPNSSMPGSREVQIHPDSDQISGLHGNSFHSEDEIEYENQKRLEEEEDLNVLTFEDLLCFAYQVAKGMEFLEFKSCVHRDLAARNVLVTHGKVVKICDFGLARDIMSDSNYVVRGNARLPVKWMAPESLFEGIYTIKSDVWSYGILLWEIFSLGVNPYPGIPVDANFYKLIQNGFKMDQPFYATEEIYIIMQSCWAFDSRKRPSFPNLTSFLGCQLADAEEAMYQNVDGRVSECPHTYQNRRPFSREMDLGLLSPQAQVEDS
TEST DESCRIPTION: Inhibition of FLT3 ITD mutant (unknown origin) incubated for 30 mins in presence of ATP by mobility shift assay
MEASUREMENT KIND: IC50 (nM)

MOLECULE SMILES	MEASUREMENT KIND	OBSERVED MEASUREMENT
Cc1c(NC(=O)CCN2CCCC2)c[nH]c1/C=C1\C(=O)Nc2ccc(F)cc21	IC50	0.8

----------
TEST DESCRIPTION: Oral bioavailability in Sprague-Dawley rat at 10 mg/kg
Assay type: ADME, organism-based
CONDITION DETAILS: in vivo
MEASUREMENT KIND: bioavailability (%)

MOLECULE SMILES	MEASUREMENT KIND	OBSERVED MEASUREMENT
Cc1c(NC(=O)CCN2CCCC2)c[nH]c1/C=C1\C(=O)Nc2ccc(F)cc21	bioavailability	73.6

----------
System: MV4-11
TEST DESCRIPTION: Antiproliferative activity against human MV4-11 cells incubated for 72 hrs by Cell Counting Kit-8 assay
Assay type: functional, cell-based
CONDITION DETAILS: MV4-11, 72 h
pIC50: −log10 of the molar value.
MEASUREMENT KIND: pIC50

MOLECULE SMILES	TARGET SYSTEM	MEASUREMENT KIND	OBSERVED MEASUREMENT
Cc1c(NC(=O)CN(C)C)c[nH]c1/C=C1\C(=O)Nc2ccc(F)cc21	MV4-11	pIC50	7.10
Cc1c(/C=C2\C(=O)Nc3ccc(F)cc32)[nH]c(Cl)c1NC(=O)[C@@H]1CCCN1	MV4-11	pIC50	7.29
Cc1c(NC(=O)CNC2CCCC2)c[nH]c1/C=C1\C(=O)Nc2ccc(F)cc21	MV4-11	pIC50	6.90
Cc1c(NC(=O)CCN(C)C)c[nH]c1/C=C1\C(=O)Nc2ccc(F)cc21	MV4-11	pIC50	7.49
Cc1c(/C=C2\C(=O)Nc3ccc(F)cc32)[nH]c(Br)c1NC(=O)[C@@H]1CCCN1	MV4-11	pIC50	7.21
Cc1c(NC(=O)CCN2CCCC2)c[nH]c1/C=C1\C(=O)Nc2ccc(Cl)cc21	MV4-11	pIC50	7.68
CCN(CC)CCC(=O)Nc1c[nH]c(/C=C2\C(=O)Nc3ccc(F)cc32)c1C	MV4-11	pIC50	7.52
Cc1c(NC(=O)[C@@H]2CCCN2)c[nH]c1/C=C1\C(=O)Nc2ccc(F)cc21	MV4-11	pIC50	7.43
Cc1c(NC(=O)CCN2CCCC2)c[nH]c1/C=C1\C(=O)Nc2ccc(F)cc21	MV4-11	pIC50	7.63

The origin of these recorded values is ChEMBL document CHEMBL4823252.
